- Run description: physchem
- Stated conditions: HPLC, Ascentis Express RP Amide column, pH 7.4, eLogD, experimental
Reported chromatographic logD values are given for each entry in this list.
// return a plain number; no unit text

[[record]]
compound = "CCCCOc1ccc(C(=O)N2CCOCC2)cc1S(=O)(=O)NCc1ccccc1 [DNDI0003407874]"
measured_metric = "chromatographic logD"
test_result = 3.1

[[record]]
compound = "COc1ccc(C(=O)N2CCOCC2)cc1S(=O)(=O)N(C)Cc1ccc(F)cc1 [DNDI0003389126]"
measured_metric = "chromatographic logD"
test_result = 2.7

[[record]]
compound = "COc1ccc(C(=O)N2CCCC2)cc1S(=O)(=O)N(Cc1ccccc1)Cc1ccccc1 [DNDI0003368297]"
measured_metric = "chromatographic logD"
test_result = 4.1

[[record]]
compound = "O=S1(=O)c2ccccc2[C@H](O)[C@@H](Cc2ccccc2)N1Cc1ccccc1 [DNDI0003578378]"
measured_metric = "chromatographic logD"
test_result = 4.2

[[record]]
compound = "O=S1(=O)c2cc(F)ccc2OC(c2ccc(F)cc2)CN1Cc1ccccc1 (centres unmarked) [DNDI0003371160]"
measured_metric = "chromatographic logD"
test_result = 4.9


stdin: Need chromatographic logD, item CN(C)CCN(Cc1ccccc1)S(=O)(=O)c1ccc(N)cc1 [DNDI0003368290]
stdout: 2.5

stdin: Subsequent entry: CS(=O)(=O)c1ccccc1S(=O)(=O)N(Cc1ccccc1)Cc1ccccc1 [DNDI0003389642]
stdout: 4.1

stdin: Also COc1ccc(OC)c(S(=O)(=O)N(CCn2nc(C)cc2C)Cc2ccccc2)c1 [DNDI0003367308] , if possible.
stdout: 4.1

----------
Measured log10 of microsomal CLint at 0.5 μM of individual entries
- Run description: in vitro
- Stated conditions: mouse, microsomes, pH 7.4, MLM CLint (uL/min/mg), mouse liver microsomes
Response schema: value (number) is log10 of microsomal CLint at 0.5 μM in units of µL/min/mg.

# example entries with known answers
[[record]]
molecule = "CN(C)c1ncccc1S(=O)(=O)N(Cc1ccc(F)cc1)Cc1ccc(F)cc1"
test_result = 2.96

[[record]]
molecule = "CCN(Cc1ccc(F)cc1)S(=O)(=O)c1cc(C(=O)N2CCOCC2)ccc1OC"
test_result = 2.06

[[record]]
molecule = "COc1ccc(C(=O)N2CCOCC2)cc1S(=O)(=O)N(Cc1ccc(C(F)(F)F)nc1)C(C)c1ccc(F)cc1 (centres unmarked)"
test_result = 2.73

[[record]]
molecule = "COc1ccc(CNC2COC2)cc1S(=O)(=O)N(Cc1ccc(F)cc1)Cc1ccc(F)cc1"
test_result = 2.58

[[record]]
molecule = "CS(=O)(=O)c1ccccc1S(=O)(=O)N(Cc1ccccc1)Cc1ccccc1"
test_result = 2.70


stdin: Fill blank: measured log10 of microsomal CLint at 0.5 μM of the molecule COc1ccc(C(=O)N2CCOCC2)cc1S(=O)(=O)N(Cc1ccccc1)Cc1cnc(C(F)(F)F)nc1 is ____.
stdout: 1.89

stdin: Do the same for COc1ccccc1S(=O)(=O)N(Cc1ccccc1)CC(O)c1ccc(F)cc1 (centres unmarked) please
stdout: 3.09

stdin: What do we get for CCCCOc1ccc(C(=O)N2CCOCC2)cc1S(=O)(=O)NCc1ccccc1 ?
stdout: 2.44

----------
- Run description: physchem
- Stated conditions: HPLC, Ascentis Express RP Amide column, pH 7.4, eLogD, experimental
Measured metric: chromatographic logD
Format: numeric value only, no unit, no commentary.

[[record]]
compound = "COc1ccc(OC)c(S(=O)(=O)N(Cc2ccccc2)C2CCN(C(C)=O)CC2)c1 [DNDI0003366132]"
measured_metric = "chromatographic logD"
test_result = 3.1

[[record]]
compound = "O=S1(=O)c2ccccc2OCC(Cc2ccccc2)N1Cc1ccccc1 (stereo not drawn) [DNDI0003370081]"
measured_metric = "chromatographic logD"
test_result = 5

[[record]]
compound = "COc1ccc(S(=O)(=O)N2CCOCC2)cc1C(=O)N(Cc1ccc(F)cc1)Cc1ccc(F)cc1 [DNDI0003389643]"
measured_metric = "chromatographic logD"
test_result = 3.9


stdin: For the compound COc1ccc(C(=O)N2CCOCC2)cc1S(=O)(=O)N(Cc1ccc(F)cc1)Cc1ccccc1Cl [DNDI0003389128] , what chromatographic logD is on record?
stdout: 4.1

stdin: Entry to check: CCCCC1Nc2cc(Cl)c(S(N)(=O)=O)cc2S(=O)(=O)N1Cc1ccccc1 (stereo not drawn) [DNDI0003392147]
stdout: 4

stdin: Check CN(C)CCOc1ccc(F)cc1S(=O)(=O)N(Cc1ccc(F)cc1)Cc1ccc(F)cc1 [DNDI0003371161] too.
stdout: 4.9

stdin: Also O=S(=O)(c1cc(F)ccc1F)N(Cc1ccccc1)C(CO)CO [DNDI0003369448] , if possible.
stdout: 2.9

stdin: Also need COc1ccc(OC)c(S(=O)(=O)N(Cc2ccc(F)cc2)Cc2ccc(C#N)cc2)c1 [DNDI0003388088] , thanks.
stdout: 4.1

stdin: Also COc1ccc(Cl)cc1S(=O)(=O)N(Cc1ccccc1)C(CO)CO [DNDI0003389933] ?
stdout: 3.2

stdin: Now the same for COc1ccc(C(=O)N2CCOCC2)cc1S(=O)(=O)N(Cc1ccc(F)cc1)Cc1ccc(F)cc1 [DNDI0003371178]
stdout: 4

stdin: Let us now turn to COc1ccc(N2CCN(C)CC2)cc1S(=O)(=O)N(Cc1ccc(F)cc1)Cc1ccc(F)cc1 [DNDI0003389645]
stdout: 4.4

stdin: Likewise for COc1ccc(C(=O)NCCO)cc1S(=O)(=O)N(Cc1ccc(F)cc1)Cc1ccc(F)cc1 [DNDI0003371176] ?
stdout: 3.8

stdin: Now consider COc1ccc(OC)c(S(=O)(=O)N2CCC(c3ccccc3)CC2)c1 [DNDI0003370422] .
stdout: 4.2

stdin: Note, next up: O=S1(=O)NC(Cc2ccccc2)COc2ccc(F)cc21 (stereo not drawn) [DNDI0003368460]
stdout: 3.3

stdin: Another compound: COc1ncc(Br)cc1S(=O)(=O)N(Cc1ccc(F)cc1)Cc1ccc(F)cc1 [DNDI0003369122]
stdout: 5.2

// provenance: paper PMC8126888
